Measured residual activity accompanies every entry in the list below.
System: RPS6KB1 (human), P23443 [T412E]
Sequence (P23443 whole entry T412E, looked up): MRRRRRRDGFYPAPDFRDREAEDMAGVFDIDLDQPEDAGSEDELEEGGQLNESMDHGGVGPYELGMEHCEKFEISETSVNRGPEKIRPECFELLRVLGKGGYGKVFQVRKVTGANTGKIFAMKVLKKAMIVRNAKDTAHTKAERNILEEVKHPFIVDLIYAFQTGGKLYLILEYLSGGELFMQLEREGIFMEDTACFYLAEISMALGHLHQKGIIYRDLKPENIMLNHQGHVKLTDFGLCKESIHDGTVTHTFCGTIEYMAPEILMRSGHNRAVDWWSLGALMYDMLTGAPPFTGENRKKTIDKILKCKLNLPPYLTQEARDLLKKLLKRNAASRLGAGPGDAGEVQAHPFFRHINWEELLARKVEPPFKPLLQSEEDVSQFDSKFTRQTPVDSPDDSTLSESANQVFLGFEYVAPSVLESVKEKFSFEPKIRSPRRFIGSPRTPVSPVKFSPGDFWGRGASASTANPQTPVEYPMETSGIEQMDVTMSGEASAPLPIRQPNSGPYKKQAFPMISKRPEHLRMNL
Assay: radiometric filter-binding kinase assay
Conditions: compound 100.0 µM
Form entry: value (%) — number only.

// solved cases for residual activity follow
smiles_record: Cc1ccc2c(c1)C(=O)[C@@]1(O)CCN(c3ccccc3)C1=N2
residual activity [%]: 71
--
smiles_record: COC(=O)/C=C/C(=O)OC
residual activity [%]: 101

-- ask // returns reported residual activity for input N#Cc1c(O)c2c(-c3ccc(-c4ccccc4O)cc3)csc2[nH]c1=O
-- reply 38

-- ask Please do the same for Cc1cc(N=Nc2cc(S(=O)(=O)O)c(C)cc2C)c(N)cc1O as well.
-- reply 102
